Origin of measurements: patent US12187719B2

target: SMARCA2 (Homo sapiens); construct: such that the cells express both SMARCA2 and SMARCA4; endogenous in cells; host or cells: A549 (NSCLC) cells with SMARCA4 mutation corrected to wild type; test: Protein degradation assay in A549 cells, SMARCA2 levels by WES capillary electrophoresis; type: cell-based; conditions: A549 (NSCLC) cells with SMARCA4 mutation corrected to wild type; 18 h incubation; maximal amount of degraded protein relative to initial levels
Sequence (P51531 whole entry): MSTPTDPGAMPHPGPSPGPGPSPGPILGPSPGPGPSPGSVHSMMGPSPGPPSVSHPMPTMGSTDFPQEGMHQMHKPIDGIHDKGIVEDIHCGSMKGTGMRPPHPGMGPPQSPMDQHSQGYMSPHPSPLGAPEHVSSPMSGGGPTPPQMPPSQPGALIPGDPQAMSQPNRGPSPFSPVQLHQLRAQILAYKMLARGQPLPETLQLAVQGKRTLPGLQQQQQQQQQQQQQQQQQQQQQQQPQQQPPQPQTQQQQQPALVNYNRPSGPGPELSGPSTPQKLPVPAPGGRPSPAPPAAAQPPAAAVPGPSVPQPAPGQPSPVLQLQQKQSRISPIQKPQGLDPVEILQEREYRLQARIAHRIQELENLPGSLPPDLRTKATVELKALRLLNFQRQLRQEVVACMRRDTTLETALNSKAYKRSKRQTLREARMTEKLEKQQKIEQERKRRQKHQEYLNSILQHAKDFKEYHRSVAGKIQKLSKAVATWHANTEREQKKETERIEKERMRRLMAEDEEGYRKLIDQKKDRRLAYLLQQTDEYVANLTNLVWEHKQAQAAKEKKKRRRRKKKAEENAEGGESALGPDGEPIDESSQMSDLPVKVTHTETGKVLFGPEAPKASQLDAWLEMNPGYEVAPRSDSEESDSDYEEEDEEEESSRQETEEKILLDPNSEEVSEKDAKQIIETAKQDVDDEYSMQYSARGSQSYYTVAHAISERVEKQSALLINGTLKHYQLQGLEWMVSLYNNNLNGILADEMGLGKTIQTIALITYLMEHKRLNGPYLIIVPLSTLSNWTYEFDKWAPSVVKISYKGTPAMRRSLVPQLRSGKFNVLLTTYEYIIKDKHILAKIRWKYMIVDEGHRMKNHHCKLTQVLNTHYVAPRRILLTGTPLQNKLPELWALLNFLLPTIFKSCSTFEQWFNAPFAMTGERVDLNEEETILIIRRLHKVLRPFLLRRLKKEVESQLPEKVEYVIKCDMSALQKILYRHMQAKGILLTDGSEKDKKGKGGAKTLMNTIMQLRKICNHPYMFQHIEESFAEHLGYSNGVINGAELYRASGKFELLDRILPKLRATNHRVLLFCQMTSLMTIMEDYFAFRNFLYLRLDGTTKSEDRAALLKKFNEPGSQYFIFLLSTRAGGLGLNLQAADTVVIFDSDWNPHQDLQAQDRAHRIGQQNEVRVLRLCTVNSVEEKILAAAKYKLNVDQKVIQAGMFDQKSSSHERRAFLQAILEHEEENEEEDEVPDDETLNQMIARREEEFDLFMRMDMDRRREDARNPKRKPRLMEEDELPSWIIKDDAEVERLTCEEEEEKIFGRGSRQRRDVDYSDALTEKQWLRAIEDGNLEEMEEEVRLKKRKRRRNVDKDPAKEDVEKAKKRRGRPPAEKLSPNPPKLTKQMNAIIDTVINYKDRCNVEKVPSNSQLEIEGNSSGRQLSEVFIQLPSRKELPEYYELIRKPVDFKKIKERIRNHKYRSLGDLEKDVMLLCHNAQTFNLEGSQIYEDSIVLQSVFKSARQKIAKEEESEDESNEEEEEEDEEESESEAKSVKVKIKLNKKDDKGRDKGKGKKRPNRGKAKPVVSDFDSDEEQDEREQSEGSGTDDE
Attribute measured: Dmax (%)

Here is how some molecules turned out for Dmax.
| Molecule | Measured on | Dmax / % |
| --- | --- | --- |
| Cc1ncsc1-c1ccc(CNC(=O)[C@@H]2C[C@@H](O)CN2C(=O)[C@@H](NC(=O)C2(F)CC2)C(C)(C)C)c(OCCc2ccc(OCCN3CCN(c4cc(-c5ccccc5O)nnc4N)CC3)cc2)c1 [Compound I-10] | SMARCA2 (Homo sapiens) | 99 |
| Cc1ncsc1-c1ccc(CNC(=O)[C@@H]2C[C@@H](O)CN2C(=O)[C@@H](NC(=O)C2(F)CC2)C(C)(C)C)c(OCCc2cccc(CN3CCN(c4cc(-c5ccccc5O)nnc4N)CC3)c2)c1 [Compound I-13] | SMARCA2 (Homo sapiens) | 88 |

I. Cc1ncsc1-c1ccc(CNC(=O)[C@@H]2C[C@@H](O)CN2C(=O)[C@@H](NC(=O)C2(F)CC2)C(C)(C)C)c(OCCc2ccc(C(=O)N3CCN(c4cc(-c5ccccc5O)nnc4N)CC3)cc2)c1 [Compound I-18]
II. Cc1ncsc1-c1ccc(CNC(=O)[C@@H]2C[C@@H](O)CN2C(=O)[C@@H](NC(=O)C2(F)CC2)C(C)(C)C)c(OCc2ccc(CCN3CCN(c4cc(-c5ccccc5O)nnc4N)CC3)cc2)c1 [Compound I-12]
// compare measured Dmax, left I , right II , return larger Let me know the label of the one you choose.
I
(I: 98%, II: 40%)

* * *

target: SMARCA4 (Homo sapiens); construct: endogenous in cells; host or cells: A549 (NSCLC) cells with SMARCA4 mutation corrected to wild type; assay: Protein degradation assay in A549 cells, SMARCA4 levels by WES capillary electrophoresis; type: cell-based; details: A549 (NSCLC) cells with SMARCA4 mutation corrected to wild type; 18 h incubation; concentration at which half maximal degradation is achieved; normalised to GAPDH
Attribute measured: DC50 (nM)

A. Cc1ncsc1-c1ccc(CNC(=O)[C@@H]2C[C@@H](O)CN2C(=O)[C@@H](NC(=O)C2(F)CC2)C(C)(C)C)c(OCCCCOc2ccc(CN3CCN(c4cc(-c5ccccc5O)nnc4N)CC3)cc2)c1 [Compound I-9]
B. Cc1ncsc1-c1ccc(CNC(=O)[C@@H]2C[C@@H](O)CN2C(=O)[C@@H](NC(=O)C2(F)CC2)C(C)(C)C)c(OCCCOCCN2CCN(c3cc(-c4ccccc4O)nnc3N)CC2)c1 [Compound I-3]
C. Cc1ncsc1-c1ccc(CNC(=O)[C@@H]2C[C@@H](O)CN2C(=O)[C@@H](NC(=O)C2(F)CC2)C(C)(C)C)c(OCCc2ccc(CN3CCN(c4cc(-c5ccccc5O)nnc4N)CC3)cc2)c1 [Compound I-2]
Order the 3 molecules from highest to lowest DC50. Please express your ranking as an ordered list of the labels.
B, A, C
(B: 2040 nM, A: 170 nM, C: 117 nM)

* * *

molecular target: SMARCA4 (Homo sapiens, UniProt P51532); construct: endogenous in cells; host or cells: A549 (NSCLC) cells with SMARCA4 mutation corrected to wild type; assay: Protein degradation assay in A549 cells, SMARCA4 levels by WES capillary electrophoresis; type: cell-based; details: A549 (NSCLC) cells with SMARCA4 mutation corrected to wild type; 18 h incubation; concentration at which half maximal degradation is achieved; normalised to GAPDH
Sequence (P51532 whole entry): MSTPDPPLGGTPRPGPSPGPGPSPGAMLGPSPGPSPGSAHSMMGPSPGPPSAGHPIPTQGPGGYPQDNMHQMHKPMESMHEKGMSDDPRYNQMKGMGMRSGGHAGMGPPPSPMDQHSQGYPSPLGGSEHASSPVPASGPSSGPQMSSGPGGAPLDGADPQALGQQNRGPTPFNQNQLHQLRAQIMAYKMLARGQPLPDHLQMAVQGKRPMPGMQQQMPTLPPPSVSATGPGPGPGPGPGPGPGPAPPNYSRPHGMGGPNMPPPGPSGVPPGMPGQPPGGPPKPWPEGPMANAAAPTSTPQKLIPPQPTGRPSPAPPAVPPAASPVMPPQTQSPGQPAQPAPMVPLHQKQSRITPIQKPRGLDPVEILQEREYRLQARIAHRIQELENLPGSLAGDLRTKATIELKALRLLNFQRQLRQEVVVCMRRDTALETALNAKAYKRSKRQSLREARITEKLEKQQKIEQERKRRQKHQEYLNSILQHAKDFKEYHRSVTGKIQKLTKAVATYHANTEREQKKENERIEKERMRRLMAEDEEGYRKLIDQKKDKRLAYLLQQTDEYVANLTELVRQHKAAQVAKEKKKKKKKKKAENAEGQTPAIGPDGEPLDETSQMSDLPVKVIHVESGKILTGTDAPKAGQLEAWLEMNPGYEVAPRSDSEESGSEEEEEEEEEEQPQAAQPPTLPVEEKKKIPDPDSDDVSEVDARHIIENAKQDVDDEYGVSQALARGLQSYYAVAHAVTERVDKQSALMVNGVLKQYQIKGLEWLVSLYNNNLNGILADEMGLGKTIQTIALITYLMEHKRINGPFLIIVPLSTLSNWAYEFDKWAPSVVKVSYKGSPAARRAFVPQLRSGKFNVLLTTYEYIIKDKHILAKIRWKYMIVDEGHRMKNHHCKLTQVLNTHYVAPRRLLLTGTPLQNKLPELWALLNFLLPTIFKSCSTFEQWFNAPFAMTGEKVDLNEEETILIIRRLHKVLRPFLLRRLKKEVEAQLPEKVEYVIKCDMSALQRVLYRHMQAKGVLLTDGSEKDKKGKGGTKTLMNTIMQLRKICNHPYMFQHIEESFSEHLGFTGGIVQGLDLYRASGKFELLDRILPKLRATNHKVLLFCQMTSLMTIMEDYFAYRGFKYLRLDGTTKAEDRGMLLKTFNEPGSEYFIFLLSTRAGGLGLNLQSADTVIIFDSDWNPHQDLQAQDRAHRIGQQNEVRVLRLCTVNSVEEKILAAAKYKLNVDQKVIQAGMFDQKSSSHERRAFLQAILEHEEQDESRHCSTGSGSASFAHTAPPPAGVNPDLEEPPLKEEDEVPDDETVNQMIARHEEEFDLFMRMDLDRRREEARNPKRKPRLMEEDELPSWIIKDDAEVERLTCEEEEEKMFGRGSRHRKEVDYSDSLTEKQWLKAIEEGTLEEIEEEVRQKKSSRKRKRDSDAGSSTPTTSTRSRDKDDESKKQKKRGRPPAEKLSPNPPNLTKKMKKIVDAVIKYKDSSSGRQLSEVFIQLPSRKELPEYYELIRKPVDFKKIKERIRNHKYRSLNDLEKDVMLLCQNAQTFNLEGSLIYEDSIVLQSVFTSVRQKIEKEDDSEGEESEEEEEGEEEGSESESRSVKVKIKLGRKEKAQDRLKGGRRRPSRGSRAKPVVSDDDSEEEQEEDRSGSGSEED
Attribute measured: DC50 (nM)

Here is how some compounds turned out for DC50.
| Mol | Measured on | DC50 [nM] |
| --- | --- | --- |
| Cc1ncsc1-c1ccc(CNC(=O)[C@@H]2C[C@@H](O)CN2C(=O)[C@@H](NC(=O)C2(F)CC2)C(C)(C)C)c(OCCc2cccc(CN3CCN(c4cc(-c5ccccc5O)nnc4N)CC3)c2)c1 | SMARCA4 (Homo sapiens, UniProt P51532) | 634 |
| Cc1ncsc1-c1ccc(CNC(=O)[C@@H]2C[C@@H](O)CN2C(=O)[C@@H](NC(=O)C2(F)CC2)C(C)(C)C)c(OCCCCCCCOCCN2CCN(c3cc(-c4ccccc4O)nnc3N)CC2)c1 | SMARCA4 (Homo sapiens, UniProt P51532) | 219 |

A. Cc1ncsc1-c1ccc(CNC(=O)[C@@H]2C[C@@H](O)CN2C(=O)[C@@H](NC(=O)C2(F)CC2)C(C)(C)C)c(OCCc2ccc(OCCN3CCN(c4cc(-c5ccccc5O)nnc4N)CC3)cc2)c1
B. Cc1ncsc1-c1ccc(CNC(=O)[C@@H]2C[C@@H](O)CN2C(=O)[C@@H](NC(=O)C2(F)CC2)C(C)(C)C)c(OCCCCCCCN2CCN(c3cc(-c4ccccc4O)nnc3N)CC2)c1
// which entry reports the smaller DC50, A or B ? Let me know the label of the one you choose.
A
(A: 26 nM, B: 1240 nM)
